// Sodium-dependent noradrenaline transporter (Homo sapiens) Ki records
Please state the figure in µM; there is no need to write the unit.

{"columns": ["Compound", "System tested", "Ki, µM"],
 "data": [
  ["CCCCCCc1ccc2c(c1)Cc1ccccc1C2CN (stereo not drawn)", "Sodium-dependent noradrenaline transporter (Homo sapiens)", 0.845]
]}

Lab note: next compound to report on.
input: Give reported Ki value for NCC1c2ccccc2Cc2cc(Br)ccc21 (stereo not drawn)
output: 4.49

====

# System tested: 5-hydroxytryptamine receptor 2C (Homo sapiens)
# Sequence (P28335 whole entry): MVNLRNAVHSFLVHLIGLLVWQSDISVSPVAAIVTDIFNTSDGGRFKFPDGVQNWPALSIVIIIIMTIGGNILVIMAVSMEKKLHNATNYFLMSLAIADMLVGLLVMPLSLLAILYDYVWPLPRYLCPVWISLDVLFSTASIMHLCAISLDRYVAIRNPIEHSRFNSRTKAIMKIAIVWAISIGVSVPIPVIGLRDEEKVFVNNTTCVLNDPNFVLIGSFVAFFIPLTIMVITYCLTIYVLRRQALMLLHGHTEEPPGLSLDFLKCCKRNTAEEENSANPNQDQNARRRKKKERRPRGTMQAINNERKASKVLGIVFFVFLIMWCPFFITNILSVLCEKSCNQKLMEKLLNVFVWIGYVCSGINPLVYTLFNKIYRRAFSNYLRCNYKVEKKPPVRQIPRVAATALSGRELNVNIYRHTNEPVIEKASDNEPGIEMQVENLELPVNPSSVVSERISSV
Measured metric: Ki (µM)
Please state the figure in µM; there is no need to write the unit.

Use these answered entries as a reference point.
{"columns": ["Compound", "Ki [µM]"],
 "data": [
  ["NCC1c2ccccc2Cc2cc(Br)ccc21 (stereo not drawn)", 0.0033],
  ["CCCCCCc1ccc2c(c1)Cc1ccccc1C2CN (stereo not drawn)", 0.062]
]}

input: Give reported Ki value for `NCC1c2ccccc2Cc2ccccc21`
output: 0.043
